B1: glmS ribozyme (parent)
chain: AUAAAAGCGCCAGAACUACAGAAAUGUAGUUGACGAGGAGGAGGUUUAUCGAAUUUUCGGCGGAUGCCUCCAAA

variants of: B1; assay: KM; higher = weaker cofactor use; RNA array; details: with glucosamine-6-phosphate
Cut-off 2000 µM on KM, inclusive. At or above means 1 (yes); below means 0 (no).

MUTANT_NAME	CAT
G41C A53U	0 (no)
C11G G51A	0 (no)
C71A	1 (yes)
A15G G59U C67U	1 (yes)
G41C C67U C70A	1 (yes)
A42U U45G	0 (no)
U45A C67G	1 (yes)
A12U U56A U65G	1 (yes)
G13U A39G	1 (yes)
C16G A39C	1 (yes)
A12C C68U	0 (no)
A42U C67U	0 (no)
A52U U65G	1 (yes)
G29C C71U	0 (no)
G29U C67A	0 (no)
A15G G40C	0 (no)
A12C G37C	1 (yes)
A14U U30G	1 (yes)
C11U A52U	0 (no)
A15C A39U	1 (yes)
A53G A64G	1 (yes)
A52U U54G	1 (yes)
C11U G59U	0 (no)
A39U G41U	0 (no)
A15U U46G G51U	0 (no)
U31G A33U	1 (yes)
G41A G66C	0 (no)
U47A A52U	1 (yes)
G13A G66A	1 (yes)
G13U G29A	1 (yes)
A14G A42C	0 (no)
U56G U65G	1 (yes)
A12C G13U	1 (yes)
C11A C71U	0 (no)
U31C U46A	1 (yes)
A15U G44A	1 (yes)
A6C C67A	0 (no)
A12G U54G	1 (yes)
U31C A53G C70U	0 (no)
U31G C67A	0 (no)
G43U A53U	1 (yes)
G43A C67U	0 (no)
G44U U45G	1 (yes)
U65G C67U	1 (yes)
